Where do these numbers come from? They come from paper PMC6127211.

Molecular target: DnaA (wild-type DnaA) (Escherichia coli, UniProt P03004)
Construct: full-length wild-type DnaA, overproduced from pKA234 (arabinose-inducible pING derivative) in E. coli KA450 and purified; no tag mentioned
Sequence (P03004 1-467): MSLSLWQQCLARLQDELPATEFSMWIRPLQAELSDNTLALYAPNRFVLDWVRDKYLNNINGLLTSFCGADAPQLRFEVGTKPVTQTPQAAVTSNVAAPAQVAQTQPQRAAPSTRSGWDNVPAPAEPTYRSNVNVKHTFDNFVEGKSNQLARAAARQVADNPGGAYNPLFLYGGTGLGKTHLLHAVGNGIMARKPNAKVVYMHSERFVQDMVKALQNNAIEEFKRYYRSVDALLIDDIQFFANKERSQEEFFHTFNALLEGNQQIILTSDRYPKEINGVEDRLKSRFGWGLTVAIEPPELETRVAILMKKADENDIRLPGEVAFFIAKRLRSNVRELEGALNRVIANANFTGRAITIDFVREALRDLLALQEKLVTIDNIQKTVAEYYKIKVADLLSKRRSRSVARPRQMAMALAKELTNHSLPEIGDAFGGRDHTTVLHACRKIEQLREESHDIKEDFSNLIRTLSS
Test: nucleotide binding to purified DnaA (method not described)
Conditions: read-out: KD (nM) / ATP

Chem Smiles: Nc1ncnc2c1ncn2[C@@H]1O[C@H](COP(=O)(O)OP(=O)(O)OP(=O)(O)O)[C@@H](O)[C@H]1O
Kd: 24 nM

---

target: DnaA (Escherichia coli, UniProt P03004, H136A); construct: full-length wild-type DnaA, overproduced from pKA234 (arabinose-inducible pING derivative) in E. coli KA450 and purified; no tag mentioned; assay: nucleotide binding to purified DnaA (method not described); settings: read-out: KD (nM) / ATP

Chem Smiles: Nc1ncnc2c1ncn2[C@@H]1O[C@H](COP(=O)(O)OP(=O)(O)OP(=O)(O)O)[C@@H](O)[C@H]1O
Kd [nM]: 21

---

target: DnaA (Escherichia coli, UniProt P03004, H136A); construct: full-length wild-type DnaA, overproduced from pKA234 (arabinose-inducible pING derivative) in E. coli KA450 and purified; no tag mentioned; experiment: nucleotide binding to purified DnaA (method not described); details: read-out: KD (nM) / ADP

Chem Smiles: Nc1ncnc2c1ncn2[C@@H]1O[C@H](COP(=O)(O)OP(=O)(O)O)[C@@H](O)[C@H]1O
Tested System: DnaA (Escherichia coli, UniProt P03004, H136A)
Measurement Unit: nM
Kd: 50

---

molecular target: DnaA (wild-type DnaA) (Escherichia coli, UniProt P03004); construct: full-length wild-type DnaA, overproduced from pKA234 (arabinose-inducible pING derivative) in E. coli KA450 and purified; no tag mentioned; assay: nucleotide binding to purified DnaA (method not described); conditions: read-out: KD (nM) / ADP

Molecule: Nc1ncnc2c1ncn2[C@@H]1O[C@H](COP(=O)(O)OP(=O)(O)O)[C@@H](O)[C@H]1O [ADP]
Tested System: DnaA (wild-type DnaA) (Escherichia coli, UniProt P03004)
Kd [nM]: 35
